- Test system: MCF7
- Test name: Cytotoxicity against human MCF7 cells by MTT assay
- Assay type: functional, cell-based
Measured quantity: pIC50
Hey, just a heads up that pIC50 is the negative log base 10 of the concentration in molar.

Consider the compound `COC(=O)[C@H](CCCCN(O)C(=O)/C=C/c1ccccc1)NC(=O)CC(O)(CC(=O)N[C@@H](CCCCN(O)C(=O)/C=C/c1ccccc1)C(=O)OC)C(=O)O` tested on MCF7; state its pIC50.
6.66

Supply pIC50 measured with MCF7 for C/C(=C\c1csc(C)n1)[C@@H]1C[C@@H]2O[C@@H]2CCC[C@H](C)[C@H](O)[C@@H](C)C(=O)C(C)(C)[C@@H](O)CC(=O)O1 [EPOTHILONE A] .
8.66

Lab note: record pIC50 of `CC(=O)c1c(Cc2ccccc2)[nH]c(=O)c2cccn12` tested on MCF7.
4.85

###

- System: Trichosporon oleaginosus
- Test name: Antimicrobial activity against Trichosporon oleaginosus 11815 after 24 to 48 hrs by serial dilution method
- Type: functional
- Applied conditions: Cutaneotrichosporon oleaginosum
Measured quantity: MIC

# return MIC for `CC(=O)c1c(Cc2ccccc2)[nH]c(=O)c2cccn12` , test system: Trichosporon oleaginosus
> 66.6 µg/mL

Param request: MIC | system Trichosporon oleaginosus | item `Cc1ccn2c(=O)c3cccn3c(=O)c12`
> 66.6 µg/mL

Provide MIC, recorded with Trichosporon oleaginosus, of `O=c1cnc(CCc2ccccc2)c2n1CCC2`
66.6 µg/mL

# assay system Trichosporon oleaginosus: give MIC of `Cc1nc(Cc2ccccc2)c(O)nc1Cc1ccccc1`
> 66.6 µg/mL

For Trichosporon oleaginosus, give the measured MIC of the entry `COC(=O)[C@H](CCCCN(O)C(=O)/C=C/c1ccccc1)NC(=O)CC(O)(CC(=O)N[C@@H](CCCCN(O)C(=O)/C=C/c1ccccc1)C(=O)OC)C(=O)O`
66.6 µg/mL

Look up and report measured MIC (Trichosporon oleaginosus) for the following compound: `COC(=O)c1c[nH]c2ccccc12`
> 66.6 µg/mL

###

Give measured MIC for each item. Keep answers brief.
- Test system: Staphylococcus aureus
- Test name: Antimicrobial activity against Staphylococcus aureus 346 after 24 to 48 hrs by serial dilution method
- Type: functional

Give me measured MIC, please, for this compound: `O=c1cnc(CCc2ccccc2)c2n1CCC2`
66.6 µg/mL

Give a short answer stating reported MIC for `Cc1ccn2c(=O)c3cccn3c(=O)c12` .
> 66.6 µg/mL

Give MIC for `COC(=O)[C@H](CCCCN(O)C(=O)/C=C/c1ccccc1)NC(=O)CC(O)(CC(=O)N[C@@H](CCCCN(O)C(=O)/C=C/c1ccccc1)C(=O)OC)C(=O)O`
> 66.6 µg/mL

Answer with reported MIC of CN(C)[C@@H]1C(O)=C(C(N)=O)C(=O)[C@@]2(O)C(O)=C3C(=O)c4c(O)cccc4[C@@](C)(O)[C@H]3[C@H](O)[C@@H]12.Cl [OXYTETRACYCLINE HYDROCHLORIDE]
0.52 µg/mL

Look up and state reported MIC for `Cc1nc(Cc2ccccc2)c(O)nc1Cc1ccccc1`
> 66.6 µg/mL

# return recorded MIC for entry `COC(=O)c1c[nH]c2ccccc12`
> 66.6 µg/mL

Output measured MIC for this item: `CC(=O)c1c(Cc2ccccc2)[nH]c(=O)c2cccn12`
> 66.6 µg/mL

###

For each record, write down the corresponding IC50.
- Test system: HUVEC
- Test name: Cytotoxicity against HUVEC cells by MTT assay
- Assay type: functional, cell-based
- Applied conditions: Homo sapiens
// units = µM; emit number, no label

Quote IC50 reported for `COC(=O)[C@H](CCCCN(O)C(=O)/C=C/c1ccccc1)NC(=O)CC(O)(CC(=O)N[C@@H](CCCCN(O)C(=O)/C=C/c1ccccc1)C(=O)OC)C(=O)O` please.
0.05

Provide IC50 value for the following molecule: `CC(=O)c1c(Cc2ccccc2)[nH]c(=O)c2cccn12`
15.5

###

- System: Candida albicans
- Test name: Antimicrobial activity against Candida albicans 1665 after 24 to 48 hrs by serial dilution method
- Type: functional
Measured quantity: MIC

Given `O=c1cnc(CCc2ccccc2)c2n1CCC2` , respond with its MIC.
33.3 µg/mL

Give the measured MIC for `CC(=O)c1c(Cc2ccccc2)[nH]c(=O)c2cccn12`
> 66.6 µg/mL

For the compound `COC(=O)c1c[nH]c2ccccc12` , give its reported MIC.
> 66.6 µg/mL

Retrieve MIC measured for `COC(=O)[C@H](CCCCN(O)C(=O)/C=C/c1ccccc1)NC(=O)CC(O)(CC(=O)N[C@@H](CCCCN(O)C(=O)/C=C/c1ccccc1)C(=O)OC)C(=O)O` and print it.
33.3 µg/mL

Return MIC for the following compound: `Cc1ccn2c(=O)c3cccn3c(=O)c12`
> 66.6 µg/mL

For the compound `Cc1nc(Cc2ccccc2)c(O)nc1Cc1ccccc1` , report MIC.
> 66.6 µg/mL

###

- System: Mycolicibacterium diernhoferi
- Test name: Antimicrobial activity against Mycobacterium diernhoferi 43542 after 24 to 48 hrs by serial dilution method
- Assay type: functional
Record form. Attribute: MIC. Fill in for each entry.

System Mycolicibacterium diernhoferi. Read-out MIC. Item CN(C)[C@@H]1C(O)=C(C(N)=O)C(=O)[C@@]2(O)C(O)=C3C(=O)c4c(O)cccc4[C@@](C)(O)[C@H]3[C@H](O)[C@@H]12.Cl [OXYTETRACYCLINE HYDROCHLORIDE] . Report value.
0.52 µg/mL

// output MIC; input `Cc1nc(Cc2ccccc2)c(O)nc1Cc1ccccc1` ; system Mycolicibacterium diernhoferi
> 66.6 µg/mL

Provide the reported MIC (system: Mycolicibacterium diernhoferi) for `COC(=O)c1c[nH]c2ccccc12`
> 66.6 µg/mL

Report measured MIC on Mycolicibacterium diernhoferi; entry: `Cc1ccn2c(=O)c3cccn3c(=O)c12`
> 66.6 µg/mL

State the measured MIC (Mycolicibacterium diernhoferi) of `O=c1cnc(CCc2ccccc2)c2n1CCC2`
33.3 µg/mL

# return MIC for `COC(=O)[C@H](CCCCN(O)C(=O)/C=C/c1ccccc1)NC(=O)CC(O)(CC(=O)N[C@@H](CCCCN(O)C(=O)/C=C/c1ccccc1)C(=O)OC)C(=O)O` , test system: Mycolicibacterium diernhoferi
> 66.6 µg/mL

Quote MIC with test system Mycolicibacterium diernhoferi for `CC(=O)c1c(Cc2ccccc2)[nH]c(=O)c2cccn12`
> 66.6 µg/mL

###

For each entry below, report its MIC value.
- Tested on: Mucor hiemalis
- Test name: Antimicrobial activity against Mucor hiemalis 2656 after 24 to 48 hrs by serial dilution method
- Assay type: functional

State, in one line, measured MIC of `O=c1cnc(CCc2ccccc2)c2n1CCC2`
33.3 µg/mL

Read off the recorded MIC for `CC(=O)c1c(Cc2ccccc2)[nH]c(=O)c2cccn12`
> 66.6 µg/mL

Note down MIC recorded for `COC(=O)c1c[nH]c2ccccc12`
> 66.6 µg/mL

# return recorded MIC for entry `COC(=O)[C@H](CCCCN(O)C(=O)/C=C/c1ccccc1)NC(=O)CC(O)(CC(=O)N[C@@H](CCCCN(O)C(=O)/C=C/c1ccccc1)C(=O)OC)C(=O)O`
> 66.6 µg/mL

Read the entry `Cc1nc(Cc2ccccc2)c(O)nc1Cc1ccccc1` and write its reported MIC.
> 66.6 µg/mL

// Input: `Cc1ccn2c(=O)c3cccn3c(=O)c12` . Output its MIC only.
> 66.6 µg/mL

###

- Tested on: MCF7
- Test name: Cytotoxicity against human MCF7 cells by MTT assay
- Type: functional, cell-based
pIC50: −log10 of the molar value.
For each of the compounds below, state its pIC50.

Fetch value of pIC50 on MCF7 for `Cc1nc(Cc2ccccc2)c(O)nc1Cc1ccccc1` .
< 4.46

Please tell me the measured pIC50 for `O=c1cnc(CCc2ccccc2)c2n1CCC2` ; system: MCF7.
< 4.38

State pIC50 (MCF7) of `COC(=O)c1c[nH]c2ccccc12` .
< 4.25

Under MCF7: report pIC50 of `Cc1ccn2c(=O)c3cccn3c(=O)c12` .
< 4.30
